# TEST_SYSTEM: T1, LexA (DinR) wild type (Bacillus subtilis, UniProt P31080 1-205)
# T1 sequence: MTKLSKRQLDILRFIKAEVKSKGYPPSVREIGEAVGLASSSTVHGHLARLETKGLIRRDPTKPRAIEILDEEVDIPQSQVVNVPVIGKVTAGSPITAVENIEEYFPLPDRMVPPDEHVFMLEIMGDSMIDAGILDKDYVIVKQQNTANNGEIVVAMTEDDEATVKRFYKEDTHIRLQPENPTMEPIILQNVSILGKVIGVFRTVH
# ASSAY_INFO: competition EMSA

BINDER: recA op T5C,A6C (dsDNA) DNA 1: GGGGGGCGAACCTGCGTTCGCCCCCC DNA 2: GGGGGGCGAACGCAGGTTCGCCCCCC
Ki / nM: 0.56
